# credit: patent US9776965B2

targetOrSystem: 11b-HSD1 (Mus musculus)
Construct: Fibroblasts were differentiated into adipocytes; endogenous in cells
method: Cellular assay, 11b-HSD1 activity in differentiated 3T3-L1 cells
testParameters: 4 hour pre-incubation, read-out: [C2] HSD1 cellular 3T3-L1 Score
readoutKind: IC50

C[C@@H](c1ccccc1)N1CC[C@H](CCc2ccc(N(C)C)cc2)C1=O : 1 to 10 µM
COc1cccc(CC2CCN(Cc3ccccc3)C2=O)c1 (centres unmarked) : 1 to 10 µM

Give IC50 for each listed item.
1. Cc1cccc(C[C@@H]2CCN([C@@H](C)c3ccccc3)C2=O)c1
2. C[C@H](c1ccccc1)N1CC[C@@H](Cc2cccc(Cl)c2)C1=O
3. CC[C@@]1(Cc2ccccc2C)CCN([C@H](C)c2ccccc2)C1=O

1. 1 to 10 µM
2. > 10 µM
3. > 10 µM

---

targetOrSystem: 11b-HSD1 (Mus musculus, UniProt P50172)
Construct: Fibroblasts were differentiated into adipocytes; endogenous in cells
Sequence (P50172 whole entry): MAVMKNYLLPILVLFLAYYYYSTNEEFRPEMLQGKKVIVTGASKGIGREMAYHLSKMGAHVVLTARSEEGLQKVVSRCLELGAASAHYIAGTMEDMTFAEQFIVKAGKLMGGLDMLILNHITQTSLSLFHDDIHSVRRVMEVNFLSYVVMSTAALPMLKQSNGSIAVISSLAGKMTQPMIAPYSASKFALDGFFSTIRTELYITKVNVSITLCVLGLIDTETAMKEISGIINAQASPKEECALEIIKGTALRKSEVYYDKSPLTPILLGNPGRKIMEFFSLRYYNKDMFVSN
method: Cellular assay, 11b-HSD1 activity in differentiated 3T3-L1 cells
testParameters: 4 hour pre-incubation, read-out: [C2] HSD1 cellular 3T3-L1 Score
For each of the compounds below, state its IC50.

Could I get IC50 for every one of these entries?
1. C[C@@H](C[C@H]1CCN([C@@H](C)c2ccccc2)C1=O)c1ccccc1
2. N#Cc1ccccc1CC1CCN(CCc2ccccc2)C1=O (stereo not drawn)
3. O=C1C(Cc2c(Cl)cccc2Cl)CCN1CCc1ccc(F)cc1 (stereo not drawn)

< 1 µM
< 1 µM
< 1 µM

Give IC50 for all compounds that follow.
1. C[C@H](C[C@H]1CCN([C@@H](C)c2ccccc2)C1=O)c1ccccc1
2. CO[C@H](C[C@@H]1CCN([C@@H](C)c2ccccc2)C1=O)c1ccccc1
3. C[C@@H](c1ccccc1)N1CC[C@H](Cc2cccc(Cl)c2)C1=O

1. < 1 µM
2. 1 to 10 µM
3. 1 to 10 µM

Field: IC50. Fill in for each record below.
1. Cc1cccc(C[C@@H]2CCN([C@H](C)c3ccccc3)C2=O)c1
2. COc1ccc(CC[C@@H]2CCN([C@@H](C)c3ccccc3)C2=O)cc1
3. O=C1[C@H](Cc2c(Cl)cccc2Cl)CCN1[C@@H](CO)c1ccccc1
4. C[C@H](c1ccccc1)N1CC[C@H](Cc2cccc(Cl)c2)C1=O
5. O=C1C(Cc2ccc3c(c2)OCO3)CCN1CCc1ccccc1 (stereo not drawn)
6. C[C@@H](c1ccccc1)N1CC[C@H](CCc2cccc3ccccc23)C1=O
7. Cc1ccccc1CC1CCN(CCc2ccccc2)C1=O (stereo not drawn)
8. Cc1ccccc1C[C@H]1CCN([C@@H](C)c2ccccc2)C1=O

1: 1 to 10 µM; 2: 1 to 10 µM; 3: > 10 µM; 4: 1 to 10 µM; 5: 1 to 10 µM; 6: 1 to 10 µM; 7: < 1 µM; 8: 1 to 10 µM

---

Please respond with reported IC50 for every item in the list.
targetOrSystem: 11b-HSD1 (Homo sapiens, UniProt P28845)
Sequence (P28845 whole entry): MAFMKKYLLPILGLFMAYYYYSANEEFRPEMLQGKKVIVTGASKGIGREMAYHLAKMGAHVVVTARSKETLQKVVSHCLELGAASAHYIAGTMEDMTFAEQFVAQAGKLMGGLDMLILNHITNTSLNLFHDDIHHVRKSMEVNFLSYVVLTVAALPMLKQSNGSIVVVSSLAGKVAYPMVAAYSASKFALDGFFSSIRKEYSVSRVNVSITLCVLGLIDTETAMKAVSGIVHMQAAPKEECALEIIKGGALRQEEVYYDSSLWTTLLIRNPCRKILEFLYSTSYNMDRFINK
method: Enzymatic assay, 11b-HSD1 dependent conversion of cortisone into cortisol (reductase activity)
testParameters: recombinant protein, 2 μM cortisone, 45 min at 37 C; read-out: [C1] HSD1-prot Reduct Score

Worked cases, IC50 given:
C[C@H](c1ccccc1)N1CC[C@H](Cc2ccccc2C#N)C1=O : > 10 µM
COc1cccc(C[C@@H]2CCN([C@H](C)c3ccccc3)C2=O)c1 : > 10 µM
Cc1ccc(CC2CCN(CCc3ccccc3)C2=O)cc1 (stereo not drawn) : > 10 µM
Cc1ccccc1CC1CCN(Cc2ccccc2)C1=O (stereo not drawn) : > 10 µM

# batch size: 5; output IC50 per entry
1. C[C@@H](c1ccccc1)N1CC[C@@H](Cc2cccc(Cl)c2Cl)C1=O
2. COc1cc(CC2CCN(CCc3ccccc3)C2=O)ccc1OCc1ccccc1 (stereo not drawn)
3. CC[C@@]1(Cc2ccccc2C)CCN([C@H](C)c2ccccc2)C1=O
4. C[C@@H](c1ccccc1)N1CC[C@@H](CCc2cccc3ccccc23)C1=O
5. Cc1ccc([C@@H](O)[C@H]2CCN([C@@H](C)c3ccccc3)C2=O)c(C)c1

1: 1 to 10 µM; 2: > 10 µM; 3: > 10 µM; 4: 1 to 10 µM; 5: > 10 µM

---

targetOrSystem: 11b-HSD1 (Homo sapiens, UniProt P28845)
method: Enzymatic assay, 11b-HSD1 dependent conversion of cortisone into cortisol (reductase activity)
testParameters: recombinant protein, 2 μM cortisone, 45 min at 37 C; read-out: [C1] HSD1-prot Reduct Score
Give measured IC50 for each item. Keep answers brief.

The examples below pair each entry with its known result.
Cc1cccc(C)c1C[C@@H]1CCN([C@@H](C)c2ccccc2)C1=O : > 10 µM
C[C@@H](c1ccccc1)[C@H]1CCN([C@@H](C)c2ccccc2)C1=O : < 1 µM
CC[C@H](C[C@@H]1CCN([C@@H](C)c2ccccc2)C1=O)c1ccccc1 : 1 to 10 µM
Cc1ccccc1CC[C@@H]1CCN([C@@H](C)c2ccccc2)C1=O : 1 to 10 µM
N#Cc1ccccc1CC1CCN(Cc2ccccc2)C1=O (stereo not shown) : > 10 µM
O=C1[C@H](Cc2c(Cl)cccc2Cl)CCN1[C@H](CO)c1ccccc1 : < 1 µM
Cc1ccccc1CC1CCN(CCCc2ccccc2)C1=O (stereo not shown) : 1 to 10 µM
C[C@H](c1ccccc1)N1CC[C@H](Cc2cccc(Cl)c2)C1=O : > 10 µM

Hi team, please reply with IC50 for each item in this list.
1. C[C@@H](c1ccccc1)N1CC[C@H](CCc2ccccc2)C1=O
2. Cc1cccc(C)c1CC1CCN(CCCc2ccccc2)C1=O (stereo not shown)

1: < 1 µM; 2: 1 to 10 µM

Each compound below has a recorded value; state its IC50.
1. CCCC1(Cc2ccccc2C)CCN([C@@H](C)c2ccccc2)C1=O (mixture of isomers)
2. O=C1C(Cc2c(F)cccc2F)CCN1CCc1ccccc1 (stereo not shown)
3. COc1ccccc1CC[C@@H]1CCN([C@@H](C)c2ccccc2)C1=O
4. COc1ccc(C[C@@H]2CCN([C@@H](C)c3ccccc3)C2=O)c(Cl)c1OC
5. C[C@@H](c1ccccc1)N1CC[C@@H](Cc2ccccc2Cl)C1=O
6. Cc1ccccc1C[C@@H]1CCN([C@H](C)c2ccccc2)C1=O
7. O=C1C(Cc2c(Cl)cccc2Cl)CCN1CCc1ccc(F)cc1 (stereo not shown) [Compound 81]
8. Cc1ccccc1C(C)[C@@H]1CCN([C@@H](C)c2ccccc2)C1=O (stereo partly shown)

1. > 10 µM
2. 1 to 10 µM
3. 1 to 10 µM
4. < 1 µM
5. < 1 µM
6. > 10 µM
7. > 10 µM
8. < 1 µM

I need IC50 for every entry listed below, if you could help.
1. O=C1C(Cc2cccc(Cl)c2Cl)CCN1Cc1ccccc1 (stereo not shown)
2. Cc1ccccc1C[C@]1(C)CCN([C@@H](C)c2ccccc2)C1=O
3. COc1ccccc1C[C@@H]1CCN([C@@H](C)c2ccccc2)C1=O
4. Cc1ccc(CCN2CCC(Cc3c(Cl)cccc3Cl)C2=O)cc1 (stereo not shown)
5. C[C@@H](c1ccccc1)N1CC[C@@H](Cc2cc3c(cc2Cl)OCO3)C1=O
6. Cc1ccccc1C[C@@H]1CCN([C@@H](C)c2ccccc2)C1=O

1. 1 to 10 µM
2. > 10 µM
3. 1 to 10 µM
4. > 10 µM
5. < 1 µM
6. < 1 µM

Answer for every listed entry: what is its IC50? The entries follow.
1. Cc1ccccc1C[C@H]1CCN([C@H](C)c2ccccc2)C1=O
2. O=C1C(Cc2ccccc2Cl)CCN1CCc1ccccc1 (stereo not shown)

1. 1 to 10 µM
2. < 1 µM

Give one value of IC50 per listed compound.
1. Cc1ccccc1CC1(Cc2ccccc2)CCN([C@@H](C)c2ccccc2)C1=O (mixture of isomers)
2. O=C1C(Cc2cccc(O)c2)CCN1Cc1ccccc1 (stereo not shown)
3. C[C@@H](c1ccccc1)[C@@H]1CCN([C@@H](C)c2ccccc2)C1=O
4. COc1ccc(C[C@@H]2CCN([C@@H](C)c3ccccc3)C2=O)cc1
5. Cc1cccc(CC2CCN(CCc3ccccc3)C2=O)c1 (stereo not shown)

1. > 10 µM
2. > 10 µM
3. < 1 µM
4. > 10 µM
5. 1 to 10 µM

List reported IC50 for each of these compounds:
1. COc1ccccc1CC1CCN(CCc2ccccc2)C1=O (stereo not shown)
2. Cc1cccc(C)c1C[C@H]1CCN([C@@H](C)c2ccccc2)C1=O
3. C[C@H](c1ccccc1)N1CC[C@@H](Cc2cccc(Cl)c2)C1=O
4. O=C1C(Cc2ccc3c(c2)OCO3)CCN1CCc1ccccc1 (stereo not shown)
5. Cc1cccc(CC2CCN(Cc3ccccc3)C2=O)c1 (stereo not shown)
6. CC[C@H](C[C@H]1CCN([C@@H](C)c2ccccc2)C1=O)c1ccccc1

1. > 10 µM
2. > 10 µM
3. > 10 µM
4. > 10 µM
5. > 10 µM
6. > 10 µM
